molecular target: AGTR1 (Homo sapiens); construct: host or cells: Pathunter CHO-K1 AGTR1 β-arrestin cell line (CHO-K1); test: DiscoveRx IP1 accumulation assay (HTRF), agonist mode, Pathunter CHO-K1 AGTR1 β-arrestin cell line; assay type: cell-based
Sequence (P30556 whole entry): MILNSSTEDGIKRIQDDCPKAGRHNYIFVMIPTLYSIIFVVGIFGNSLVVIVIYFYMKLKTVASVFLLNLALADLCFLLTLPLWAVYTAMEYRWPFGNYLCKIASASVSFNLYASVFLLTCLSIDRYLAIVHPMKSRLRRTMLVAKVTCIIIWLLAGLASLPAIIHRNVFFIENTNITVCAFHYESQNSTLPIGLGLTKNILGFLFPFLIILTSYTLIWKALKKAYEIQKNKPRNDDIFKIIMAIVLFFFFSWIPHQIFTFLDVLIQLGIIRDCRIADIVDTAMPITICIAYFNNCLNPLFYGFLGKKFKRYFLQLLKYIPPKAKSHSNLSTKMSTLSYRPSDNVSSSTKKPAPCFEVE

SMILES DATA | IP-1 Ymax (%)
CCc1nc2c(C)cc(C)nc2n1Cc1cnc(-c2cc(-c3cccc(C)c3)ccc2C(=O)O)nc1 | 5.7
CCC1=NC2(CCCC2)C(=O)N1Cc1ccc(-c2cc(-c3cc(C)ccn3)ccc2-c2nn[nH]n2)cc1 | 17.8
CCc1nc2c(C)cc(C)nc2n1Cc1ccc(-c2cc(-c3ccc(C(F)(F)F)cc3)ccc2-c2nn[nH]n2)cc1 | 9.2
CCc1nc2c(C)cc(C)nc2n1Cc1ccc(-c2cc(-c3ccccc3)ccc2-c2noc(=O)[nH]2)cc1 | 10.8
